Tested on: SK-MEL-28 melanoma
PROCEDURE_DETAILS: NCI tumour cell line growth inhibition, 48 h
ATTRIBUTE_MEASURED: TGI

Input line: Given O=[N+]([O-])c1cccc(C2=NN(c3ccccc3)C3c4ccccc4OCC23)c1 (stereo unspecified) , state its recorded TGI.
Output line: > 100 µM

Input line: For the compound O=C(CC1(O)C(=O)Nc2ccccc21)c1ccc(Cl)cc1Cl (stereo unspecified) , what TGI is on record?
Output line: > 100 µM

***
Input line: Which TGI value is on record for CN1c2c(nc(N)[nH]c2=O)NCC1CCNc1ccc(C(=O)NC(CCC(=O)O)C(=O)O)cc1 (stereo unspecified) ?
Output line: 2290 µM

Input line: Would you mind telling me what TGI value was observed for CC1OC(CC(=O)O)Cc2c1c(O)c1c(O)cc(-c3cc(=O)c4c(=O)c5c(c(=O)c=4c3=O)CC(CC(=O)O)OC5C)c(O)c1c2O (stereo unspecified) ?
Output line: 29.5 µM

Input line: Quick one: TGI of Nc1nc(SCCNC(=O)CCc2ccc(O)c(I)c2)nc2c1ncn2C1OC(CO)C(O)C1O (stereo unspecified) ?
Output line: > 100 µM

Input line: Sample `O=C(Nc1ccccc1)c1cc(S(=O)(=O)N2CCNC2=O)c(S)cc1Cl` — what was its TGI?
Output line: > 100 µM

###

Tested on: HOP-92 NSCLC
PROCEDURE_DETAILS: NCI tumour cell line growth inhibition, 48 h; in the data active = GI50 below about 0.43 µM; inactive = the rest
API: response.call in t = active, f = inactive

Reference set (5 entries):
Input line: # lookup: test call for `COc1ccc(CNCCCN2C(=O)c3ccc4c5c(ccc(c35)C2=O)C(=O)N(CCCNCc2ccc(OC)c(OC)c2OC)C4=O)c(OC)c1OC`
Output line: t

Input line: Record request — test call for `Cc1ccc(-c2nc(/C=N/Nc3cc(C)nc4ccc(Br)cc34)c(C)o2)cc1`
Output line: f

Input line: For this compound, state the assay outcome: `C1C[OH+]CCNCC[OH+]CC[OH+]CCN1.N.[Cl-].[Pt+4]`
Output line: f

Input line: Hey, what did the test say about `COc1cc2c(cc1O)c(=O)n(CCN(C)C)c1c3cc4c(cc3ncc21)OCO4` ?
Output line: t

Input line: Please state the recorded outcome for this compound: `O=[N+]([O-])c1ccc(N=Nc2c(Cl)cc(O)cc2Cl)cc1`
Output line: t

Continuing:
Input line: What did the test return for `COc1ccc2c(c1)C(=O)c1c-2c(N2CCN(C(=O)CCNCCNCCN)CC2)nc2ccccc12` ?
Output line: f

Input line: Called result for `COc1cc2c3c(n(CCCn4cncn4)c(=O)c2cc1OC)-c1cc2c(cc1C3=O)OCO2`
Output line: f

Input line: Test call for this compound, please: `CCOC(=O)Nc1ccc2c(c1)C(=O)N(CC)c1ccccc1O2`
Output line: f

Input line: Which result was noted for this compound in the test: `C/C(CC(C)(C)N1CC1)=N\NC(=O)Nc1cccc2ccccc12`
Output line: f

###

Tested on: TK-10 renal
PROCEDURE_DETAILS: NCI tumour cell line growth inhibition, 48 h
TGI by entry:

Look over these answered cases.
Input line: Requested field: TGI. Item: `Cc1c(C(=O)Nc2ccccc2)nnn1-c1ccnc2cc(C(F)(F)F)ccc12`
Output line: > 100 µM

Input line: I would be grateful if you could share the reported TGI for `COc1cc2c(/C=C3/C(=O)Nc4ccc(O)cc43)c(Cl)n(Cc3cc(OC)c(OC)c(OC)c3)c2cc1C` .
Output line: > 24.6 µM

Input line: Reported TGI for N#Cc1ccccc1NC(=O)C(=O)C(C(=O)c1ccncc1)C1OC(=O)c2ccccc21 (stereo not given) : what is it?
Output line: > 100 µM

Input line: Using the record for `CCOC(=O)Nc1ccc2c(c1)C(=O)N(CC)c1ccccc1O2` , report its TGI.
Output line: > 100 µM

Then there is this molecule:
Input line: Looking for the measured TGI of `S=C1SCN(Cc2ccccc2)CN1Cc1ccccc1` , can you help?
Output line: 12.6 µM
